# Assayed System: rat brain farnesyl protein transferase (PFT) (Rattus norvegicus, UniProt Q02293+Q04631)
# Construct: 40-fold purified rat brain farnesyl protein transferase; from tissue; host or cells: rat brain
# Measurement Protocol: PFT inhibitory activity assay (radiolabeled farnesyl pyrophosphate, biotinyl peptide, streptavidin beads)
# Assay type: biochemical
# Condition Description: 40-fold purified rat brain enzyme; 0.12 μM [3H]FPP, 0.1 μM biotinyl-Ahe-Tyr-Lys-Cys-Val-Ile-Met; 37° C., 30 minutes; read-out: IC50 (μM) against PFT
Measured Endpoint: IC50 (µM)

Substance | Result Units | Value Measured
PhCH2 CH2 NHCO--D--His--Tyr(OBn)CONHCH2 CH2 [5 (27)] | µM | 30
